Below: molecules with IC50 recorded for Prostaglandin G/H synthase 2 (Ovis aries, UniProt P79208) in separate published works.
measured-endpoint: IC50 (nM)

See these solved cases before continuing.
The recorded IC50 for entry CC1(C)CC(=O)C2=C(C1)NC(c1ccc(Br)cc1)=CC2c1ccc(S(C)(=O)=O)cc1 (stereo not drawn) equals 13200

The recorded IC50 for entry CC1=C(CC(=O)Sc2ccccc2)c2cc(F)ccc2C1=Cc1ccc([S+](C)[O-])cc1 (stereo not drawn) equals 200

The recorded IC50 for entry COc1ccc(C2=CC(c3ccc(S(C)(=O)=O)cc3)C3=C(CC(C)(C)CC3=O)N2)cc1 (stereo not drawn) equals 300

The recorded IC50 for entry COc1cc(OC)c2c(O)c3c(=O)cc(C)oc3c(-c3c(O)cc4cc5c(c(O)c4c3OC)C(=O)CC(C)(O)O5)c2c1 (stereo not drawn) equals 11100

The recorded IC50 for entry COc1ccc2c(c1)c(CC(=O)SC1CCCCC1)c(C)n2C(=O)c1ccc(Cl)cc1 equals 490

The recorded IC50 for entry CC1(C)CC(=O)C2=C(C1)NC(c1ccc(S(C)(=O)=O)cc1)=CC2c1ccc(F)cc1 (stereo not drawn) equals 300

1: O=C(Cc1ccccc1Nc1c(Cl)cccc1Cl)Sc1ccccc1
2: COC(=O)C1=C(N)NC2=C(C(=O)CC(C)(C)C2)C1c1ccc(S(C)(=O)=O)cc1 (stereo not drawn)
3: Cc1ccc(C2=CC(c3ccc(S(C)(=O)=O)cc3)C3=C(CC(C)(C)CC3=O)N2)cc1 (stereo not drawn)
4: CS(=O)(=O)c1ccc(-c2cc(Cn3ccnc3)c3ccc4c(c3n2)CCCC4)cc1
rank_up(items): orders items by reported IC50 in ascending numerical order. Answer format: list of labels, ordered as asked.
4, 1, 2, 3

1: COc1cc(OC)c2c(O)c3c(c(-c4c(O)cc5cc6c(c(O)c5c4OC)C(=O)CC(C)(O)O6)c2c1)OC(C)(O)CC3=O (stereo not drawn)
2: CC1(C)CC(=O)C2=C(C1)NC(c1ccc(S(C)(=O)=O)cc1)=CC2c1ccc(Br)cc1 (stereo not drawn)
Returns: the label, 1 or 2 , whose recorded IC50 is the lower number. Kindly give the label for the entry you pick.
1
